B1: C22orf31 (parent)
chain: YSLELGKAIKQKLWEALCSQGAIS

- Variants of: B1
- Protocol Text: protein stability index of a GFP-peptide fusion (GPS, HEK-293T) (PSI 1-6); higher = more stable;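 note: lentivirally expressed fusions sorted by FACS into six bins by GFP to DsRed ratio, PSI derived from sequencing read proportions per bin multiplied by bin number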
- Run Conditions: c terminus: a fixed tail appended
Given measured protein stability index, output 1 if it is greater than or equal to 2 and -1 if not.

- Change: "W14M"
  Class Label: 1
- Change: "L17D"
  Class Label: 1
- Change: "S2Y"
  Class Label: 1
- Change: "L17A"
  Class Label: -1
- Change: "K10R"
  Class Label: -1
- Change: "S2E"
  Class Label: -1
- Change: "K7C"
  Class Label: -1
- Change: "L3N"
  Class Label: 1

Could you please find out whether L3S has protein stability index that meets 2 or exceeds it? -1

Cool, now K12P -1

Cool, now A8Q -1
